// TGI lookup, one value per entry
Tested on: NCI-H460 lung
Test Summary: NCI tumour cell line growth inhibition, 48 h

1) CCOC(=N)CC(=O)Nc1ccccc1 :: > 46.4 µM
2) C#C[C@@]1(O)[C@@H](CO)O[C@@H](n2cc(C(F)(F)F)c3c(N)ncnc32)[C@@H]1O :: 10.6 µM
3) COc1ccc(S(=O)(=O)Nc2c(/C=C\c3cc(OC)c(OC)c(OC)c3)ccc(OC)c2O)cc1 :: 13.7 µM

Sample "O=C(/C=C/c1ccccn1)c1ccc(OCc2nnc(-c3ccc(Cl)cc3)o2)cc1" ; TGI observed: 11.1 µM

====

Test system: HCT-116 colon
Test Summary: NCI tumour cell line growth inhibition, 48 h
Reported Endpoint: TGI (µM)
State just the number; it will be interpreted in µM.

Below: 3 compounds and their reported TGI.
1) Cn1cc(C2=C(c3cn(CCCN)c4ccccc34)C(=O)NC2=O)c2ccccc21 :: 10.1
2) CCOc1ccc(C(C[N+](=O)[O-])Sc2ccccc2N)cc1 (stereo not given) :: 3.36
3) CSc1ccc(NC(=O)C2c3[nH]c4ccccc4c3C3CCC(C(C)(C)C)CC3C2C(=O)O)cc1 (stereo not given) :: 27.5

Now for another entry.
Sample "C[n+]1c2ccccc2c(CNCC(=O)O)c2ccccc21" ; TGI observed: 1.3

====

System: MDA-MB-231 breast
Test Summary: NCI tumour cell line growth inhibition, 48 h
Returns criterion met if the recorded TGI is greater than or equal to 10 µM, and criterion not met otherwise.

# example entries with known answers
1) Nc1nc(Cl)c2ncn(Cc3cccc(CCl)c3)c2n1 :: criterion met
2) CCCCCCCCCCNCCSS(=O)(=O)O :: criterion not met
3) Oc1ccc(C(O)(c2ccccc2)c2ccccc2)c2ccccc12 :: criterion not met
4) CS(=O)(=O)c1cccc(Nc2ncc3cc(-c4ccccc4Cl)ccc3n2)c1 :: criterion met
5) CS(=O)(=O)c1ccc2nc(-c3ccc(O)cc3)sc2c1 :: criterion met
6) CCCc1nc(Cl)c(Cl)c(Cl)n1 :: criterion met
7) COC(=O)CN1C(=O)C2(C(=O)OC)OC1(c1ccc([N+](=O)[O-])cc1)C1C(=O)N(c3ccccc3)C(=O)C12 (centres undefined) :: criterion met
8) O=C(/C=C/c1ccccn1)c1ccc(OCc2nnc(-c3ccc(Cl)cc3)o2)cc1 :: criterion not met

Lab note: next compound to report on.
stdin: In plain terms: is recorded TGI at least 10 µM for COC1C=COC2(C)Oc3c(C)c(O)c4c(O)c(c(C5SCCS5)c(O)c4c3C2=O)NC(=O)/C(C)=C\C=CC(C)C(O)C(C)C(O)C(C)C(OC(C)=O)C1C (centres undefined) ?
stdout: criterion met

====

Tested on: M14 melanoma
Test Summary: NCI tumour cell line growth inhibition, 48 h
// TGI lookup, one value per entry
State just the number; it will be interpreted in µM.

Below: 3 compounds and their reported TGI.
1) CCCCCCCCCCCCN=C(N)c1ccc(N2CCN(c3ccc(C(N)=NCCCCCCCCCCCC)cc3)CC2)cc1 :: 16.4
2) N=C(N)c1ccc(-c2ccc(-c3ccc4ccccc4c3)s2)s1 :: 5.72
3) Nc1ncc(-c2ccc3ncnc(N4CCc5ccc(Cl)cc54)c3c2)cc1C(F)(F)F :: 26

Sample "COc1ccc2c(O)c(/C=C3\N=Nc4ncccc43)oc2c1C[C@@H]1CCNC[C@H]1F" ; TGI observed: 2.2
